experiment: total protein half-life in vivo (active degradation + dilution); higher = more stable protein; conditions: wild type E. coli NCM3722; growth: C-lim chemostat; doubling time 3 h
Classify as follows. Reported total protein half-life in vivo greater than or equal to 3 h: y. Reported total protein half-life in vivo below: n.

{"columns": ["biopolymer_sequence", "label_class"],
 "data": [
  ["MANWLNQLQSLLGQSSSSTSSSADQGLVKLLVPGALGGLAGLLVANKSARKLLTKYGTNALLVGGGAVAGTVLWNKYKDKIRAAHQDEPQFGAQSTPLDERTARLILALVFAAKSDGHIDAKERAAIDQQLRGAGVEEQGRVLIEQAIEQPLDPQRLATGVRNEEEALEIYFLSCAAIDIDHFMERSYLNALGDALKIPQDVRDGIERDLEQQKRTLAE", "n"],
  ["MKMIEVVAAIIERDGKILLAQRPAQSDQAGLWEFAGGKVEPDESQRQALVRELREELGIEATVGEYVASHQREVSGRIIHLHAWHVPDFHGTLQAHEHQALVWCSPEEALQYPLAPADIPLLEAFMALRAARPAD", "y"],
  ["MSHPALTQLRALRYCKEIPALDPQLLDWLLLEDSMTKRFEQQGKTVSVTMIREGFVEQNEIPEELPLLPKESRYWLREILLCADGEPWLAGRTVVPVSTLSGPELALQKLGKTPLGRYLFTSSTLTRDFIEIGRDAGLWGRRSRLRLSGKPLLLTELFLPASPLY", "n"],
  ["MKLTTHHLRTGAALLLAGILLAGCDQSSSDAKHIKVGVINGAEQDVAEVAKKVAKEKYGLDVELVGFSGSLLPNDATNHGELDANVFQHRPFLEQDNQAHGYKLVAVGNTFVFPMAGYSKKIKTVAQIKEGATVAIPNDPTNLGRALLLLQKEKLITLKEGKGLLPTALDITDNPRHLQIMELEGAQLPRVLDDPKVDVAIISTTYIQQTGLSPVHDSVFIEDKNSPYVNILVAREDNKNAENVKEFLQSYQSPEVAKAAETIFNGGAVPGW", "n"],
  ["MPLPDFRLIRLLPLAALVLTACSVTTPKGPGKSPDSPQWRQHQQDVRNLNQYQTRGAFAYISDQQKVYARFFWQQTGQDRYRLLLTNPLGSTELELNAQPGNVQLVDNKGQRYTADDAEEMIGKLTGMPIPLNSLRQWILGLPGDATDYKLDDQYRLSEITYSQNGKNWKVVYGGYDTKTQPAMPANMELTDGGQRIKLKMDNWIVK", "y"],
  ["MSFELPALPYAKDALAPHISAETIEYHYGKHHQTYVTNLNNLIKGTAFEGKSLEEIIRSSEGGVFNNAAQVWNHTFYWNCLAPNAGGEPTGKVAEAIAASFGSFADFKAQFTDAAIKNFGSGWTWLVKNSDGKLAIVSTSNAGTPLTTDATPLLTVDVWEHAYYIDYRNARPGYLEHFWALVNWEFVAKNLAA [P0AGD3]", "y"]
]}

* * *

experiment: total protein half-life in vivo (active degradation + dilution); higher = more stable protein; settings: wild type E. coli NCM3722; growth: N-lim chemostat; doubling time 6 h
total protein half-life in vivo by entry:

{"columns": ["biopolymer_sequence", "units_symbol", "total protein half-life in vivo"],
 "data": [
  ["MQNTTHDNVILELTVRNHPGVMTHVCGLFARRAFNVEGILCLPIQDSDKSHIWLLVNDDQRLEQMISQIDKLEDVVKVQRNQSDPTMFNKIAVFFQ [P0ADF8]", "h", 1.45],
  ["MLIRVEIPIDAPGIDALLRRSFESDAEAKLVHDLREDGFLTLGLVATDDEGQVIGYVAFSPVDVQGEDLQWVGMAPLAVDEKYRGQGLARQLVYEGLDSLNEFGYAAVVTLGDPALYSRFGFELAAHHDLRCRWPGTESAFQVHRLADDALNGVTGLVEYHEHFNRF", "h", 4.51],
  ["MHGNSEMQKINQTSAMPEKTDVHWSGRFSVAPMLDWTDRHCRYFLRLLSRNTLLYTEMVTTGAIIHGKGDYLAYSEEEHPVALQLGGSDPAALAQCAKLAEARGYDEINLNVGCPSDRVQNGMFGACLMGNAQLVADCVKAMRDVVSIPVTVKTRIGIDDQDSYEFLCDFINTVSGKGECEMFIIHARKAWLSGLSPKENREIPPLDYPRVYQLKRDFPHLTMSINGGIKSLEEAKAHLQHMDGVMVGREAYQNPGILAAVDREIFGSSDTDADPVAVVRAMYPYIERELSQGTYLGHITRHMLGLFQGIPGARQWRRYLSENAHKAGADINVLEHALKLVADKR", "h", 4.2],
  ["MDIIFYHPTFDTQWWIEALRKAIPQARVRAWKSGDNDSADYALVWHPPVEMLAGRDLKAVFALGAGVDSILSKLQAHPEMLNPSVPLFRLEDTGMGEQMQEYAVSQVLHWFRRFDDYRIQQNSSHWQPLPEYHREDFTIGILGAGVLGSKVAQSLQTWRFPLRCWSRTRKSWPGVQSFAGREELSAFLSQCRVLINLLPNTPETVGIINQQLLEKLPDGAYLLNLARGVHVVEDDLLAALDSGKVKGAMLDVFNREPLPPESPLWQHPRVTITPHVAAITRPAEAVEYISRTIAQLEKGERVCGQVDRARGY", "h", 4.45],
  ["MKLVGSYTSPFVRKLSILLLEKGITFEFINELPYNADNGVAQFNPLGKVPVLVTEEGECWFDSPIIAEYIELMNVAPAMLPRDPLESLRVRKIEALADGIMDAGLVSVREQARPAAQQSEDELLRQREKINRSLDVLEGYLVDGTLKTDTVNLATIAIACAVGYLNFRRVAPGWCVDRPHLVKLVENLFSRESFARTEPPKA [P0ACA1]", "h", 4.16],
  ["MPKLRLIGLTLLALSATAVSHAEETRYVSDELNTWVRSGPGDHYRLVGTVNAGEEVTLLQTDANTNYAQVKDSSGRTAWIPLKQLSTEPSLRSRVPDLENQVKTLTDKLTNIDNTWNQRTAEMQQKVAQSDSVINGLKEENQKLKNELIVAQKKVDAASVQLDDKQRTIIMQWFMYGGGVLGLGLLLGLVLPHLIPSRKRKDRWMN [P0ADT8]", "h", 5.83],
  ["MKKIACLSALAAVLAFTAGTSVAATSTVTGGYAQSDAQGQMNKMGGFNLKYRYEEDNSPLGVIGSFTYTEKSRTASSGDYNKNQYYGITAGPAYRINDWASIYGVVGVGYGKFQTTEYPTYKHDTSDYGFSYGAGLQFNPMENVALDFSYEQSRIRSVDVGTWIAGVGYRF [P0A917]", "h", 6.09]
]}
